Would you kindly list logD for each of these compounds?
# experimentalConditions: octanol/water
# Description: Partition coefficient (logD) (chloroform/buffer)

q: Look up logD for this compound: `NS(=O)(=O)c1nnc(NC(=O)CCN2C(=O)c3cccnc3C2=O)s1`
a: 0.449

q: Look up logD for this compound: CCN(C(=O)c1cccc(C(=O)O)n1)C1CC(C)S(=O)(=O)c2sc(S(N)(=O)=O)cc21 (stereo unspecified)
a: 1.736

q: Look up logD for this compound: `NS(=O)(=O)c1nnc(NC(=O)c2cccc(C(=O)O)n2)s1`
a: 0.085

q: Look up logD for this compound: `NS(=O)(=O)c1nnc(N2C(=O)c3cccnc3C2=O)s1`
a: 0.315

q: Look up logD for this compound: `NS(=O)(=O)c1ccc(NC(=O)c2cccc(C(=O)O)n2)c(F)c1`
a: 0.117

q: Look up logD for this compound: `Cn1nc(S(N)(=O)=O)s/c1=N\C(=O)c1cccc(C(=O)O)n1`
a: 0.428
